- assay.target: GST-tagged K-Ras mutant / His-tagged hSOS1 (Homo sapiens, UniProt P01116)
- Sequence (P01116 whole entry G12D, form open): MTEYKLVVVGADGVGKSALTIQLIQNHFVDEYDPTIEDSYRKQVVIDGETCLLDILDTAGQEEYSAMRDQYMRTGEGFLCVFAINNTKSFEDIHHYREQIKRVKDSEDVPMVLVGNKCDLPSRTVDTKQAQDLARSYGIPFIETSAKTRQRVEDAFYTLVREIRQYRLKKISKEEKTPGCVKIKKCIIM
- assay.text: HTRF assay, K-Ras mutant / SOS1 interaction
- Format: binding
- condition.details: compound nos. 401-703; read-out: IC50 against mutant Kras
Entries annotated with measured IC50

The examples below pair each entry with its known result.
compound | IC50
OC1Cc2ccccc2N(c2ccc3c(N4CC5CCC(C4)N5)nc(OCC45CCCN4CCC5)nc3c2F)C1 (stereo not drawn) | > 500 nM
CN1CCC[C@H]1COc1nc2c(c(N3CCNCC(F)(F)C3)n1)CCN(c1cc(O)cc3ccccc13)C2 | < 500 nM
N#Cc1c(N)sc2c(F)ccc(-c3c(Cl)cc4c(N5CC6CCC(C5)N6)nc(OC[C@@]56CCCN5C[C@H](F)C6)nc4c3F)c12 [Compound 673] | < 500 nM
CN1CCC[C@H]1COc1nc(N2CCCC(N3CC(N)C3)CC2)c2cc(Cl)c(-c3cccc4sc(N)nc34)c(F)c2n1 (stereo partly drawn) | > 500 nM
Nc1nc2c(-c3c(Cl)cc4c(N5CC6CNCC6C5)nc(OC[C@@]56CCCN5C[C@H](F)C6)nc4c3F)ccc(F)c2s1 (stereo partly drawn) | < 500 nM
CN1CCCC1CCn1nc(N2CC3CCC(C2)N3)c2ccc(-c3cc(O)cc4ccccc34)c(F)c2c1=O (stereo not drawn) | > 500 nM
Nc1nccc2c(-c3c(Cl)cc4c(N5CC6CCC(C5)N6)nc(OCC56CCCN5CCC6)nc4c3F)cccc12 | > 500 nM
Nc1cccc(-c2ccccc2-c2c(Cl)cc3c(N4CCCCCC4)nc(OCC45CCCN4CCC5)nc3c2F)c1 | > 500 nM

Q: Name the recorded IC50 of the item COC1CCCCN(c2nc(OC[C@@H]3CCCN3C)nc3c(F)c(-c4cccc5sc(N)nc45)c(Cl)cc23)C1 (stereo partly drawn) [Compound 474] in your answer.
Result: < 500 nM
